These data points were gathered from ChEMBL document CHEMBL4177618.

target: 5-hydroxytryptamine receptor 3A (Homo sapiens, UniProt P46098); assay: Antagonist activity at human 5-HT3A receptor expressed in HEK293 cells assessed as inhibition of 5-HT-induced calcium flux preincubated for 30 mins prior to 5-HT addition by Fluo-4 AM dye based FLIPR assay
Sequence (P46098 whole entry): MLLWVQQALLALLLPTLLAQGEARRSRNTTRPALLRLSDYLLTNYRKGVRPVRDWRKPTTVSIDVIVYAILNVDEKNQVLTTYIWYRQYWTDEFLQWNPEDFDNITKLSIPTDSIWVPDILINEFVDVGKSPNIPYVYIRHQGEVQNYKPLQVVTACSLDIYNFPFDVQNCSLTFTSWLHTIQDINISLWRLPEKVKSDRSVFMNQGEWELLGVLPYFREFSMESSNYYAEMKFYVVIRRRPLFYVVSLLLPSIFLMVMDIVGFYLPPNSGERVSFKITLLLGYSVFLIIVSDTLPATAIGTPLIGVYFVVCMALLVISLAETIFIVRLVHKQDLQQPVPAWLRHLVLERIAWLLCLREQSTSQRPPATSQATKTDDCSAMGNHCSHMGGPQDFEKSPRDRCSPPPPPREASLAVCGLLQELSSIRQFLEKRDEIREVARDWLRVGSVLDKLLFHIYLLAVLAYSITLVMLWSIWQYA
Consider the following compounds; for each one, report its IC50.
Give bare numbers, in µM.

Cc1cccc2c1nc1n2C[C@@]2(CN3CCC2CC3)O1 :: 0.007
Clc1ccc2c(c1)nc1n2C[C@@]2(CN3CCC2CC3)O1 :: 0.006
FC(F)(F)c1ccc2nc3n(c2c1)C[C@@]1(CN2CCC1CC2)O3 :: 0.017
Cc1ccc2nc3n(c2c1)C[C@@]1(CN2CCC1CC2)O3 :: 0.006
Brc1nc2n(c1Br)CC1(CN3CCC1CC3)O2 (racemic) :: 0.062

Next compound, IC50 to be filled in.
May I ask what IC50 has been recorded for "FC(F)(F)c1ccc2c(c1)nc1n2C[C@@]2(CN3CCC2CC3)O1" ?
0.66
